- System: Triticum aestivum
- EXPERIMENTAL_PROTOCOL: Crop compatibility post-emergence (greenhouse pot trial)
- Type: in vivo
- CONDITION_SUMMARY: application rate 20 g/ha
Recorded Triticum aestivum (Efficacy in %), one value per entry.
# answer = value followed by unit

Some solved entries appear below for comparison.
>  <COMPOUND>
CC(Sc1cc(-n2c(=O)cc(C(F)(F)F)n(C)c2=O)c(F)cc1Cl)C(=O)NCC1(C)CCCO1 (stereo not drawn)

>  <Triticum aestivum (Efficacy in %)>
20%

$$$$
>  <COMPOUND>
Cn1c(C(F)(F)F)cc(=O)n(-c2cc(SCC(C)(C)C(=O)OCC3CCCO3)c(Cl)cc2F)c1=O (stereo not drawn)

>  <Triticum aestivum (Efficacy in %)>
20%

$$$$
>  <COMPOUND>
CCC(Sc1cc(-n2c(=O)c(C)c(C(F)(F)F)n(C)c2=O)c(F)cc1Cl)C(=O)NCC1CCCO1 (stereo not drawn)

>  <Triticum aestivum (Efficacy in %)>
20%

$$$$
>  <COMPOUND>
CCC(Sc1cc(-n2c(=O)cc(C(F)(F)F)n(C)c2=O)c(F)cc1Cl)C(=O)OCC1CCCO1 (stereo not drawn)

>  <Triticum aestivum (Efficacy in %)>
20%

$$$$
>  <COMPOUND>
CCC(Sc1cc(-n2c(=O)c(C)c(C(F)(F)F)n(C)c2=O)c(F)cc1Cl)C(=O)OCC1CCOC1 (stereo not drawn)

>  <Triticum aestivum (Efficacy in %)>
0%

$$$$
>  <COMPOUND>
Cn1c(C(F)(F)F)cc(=O)n(-c2cc(SCC(C)(C)C(=O)OCC3CCOCC3)c(Cl)cc2F)c1=O

>  <Triticum aestivum (Efficacy in %)>
0%

$$$$

Query string: Give Triticum aestivum (Efficacy in %) for Cc1c(C(F)(F)F)n(C)c(=O)n(-c2cc(SC(CC(C)C)C(=O)OCC3CCCO3)c(Cl)cc2F)c1=O (stereo not drawn)
Result string: 0%

Query string: Respond only with Triticum aestivum (Efficacy in %) recorded for CC(Sc1cc(-n2c(=O)cc(C(F)(F)F)n(C)c2=O)c(F)cc1Cl)C(=O)NCC1CS(=O)(=O)CCO1 (stereo not drawn)
Result string: 10%

Query string: Read off the recorded Triticum aestivum (Efficacy in %) for CCC(C)C(Sc1cc(-n2c(=O)cc(C(F)(F)F)n(C)c2=O)c(F)cc1Cl)C(=O)OCC1CCOC1 (stereo not drawn)
Result string: 20%

Query string: Please give the documented Triticum aestivum (Efficacy in %) of CC(Sc1cc(-n2c(=O)cc(C(F)(F)F)n(C)c2=O)c(F)cc1Cl)C(=O)OCCOC(F)(F)F (stereo not drawn)
Result string: 20%

Query string: Give Triticum aestivum (Efficacy in %) for CC(C)=C(Sc1cc(-n2c(=O)cc(C(F)(F)F)n(C)c2=O)c(F)cc1Cl)C(=O)OCC1CCOC1 (stereo not drawn)
Result string: 20%

Query string: Please give the documented Triticum aestivum (Efficacy in %) of CON(C(=O)C(C)Sc1cc(-n2c(=O)cc(C(F)(F)F)n(C)c2=O)c(F)cc1Cl)C1CCOC1 (stereo not drawn)
Result string: 10%

Query string: Read off the recorded Triticum aestivum (Efficacy in %) for CC(Sc1cc(-n2c(=O)cc(C(F)(F)F)n(C)c2=O)c(F)cc1Cl)C(=O)OCC1CCOC1 (stereo not drawn)
Result string: 0%

Query string: Please give measured Triticum aestivum (Efficacy in %) of the following entry: CSCCNC(=O)C(C)Sc1cc(-n2c(=O)cc(C(F)(F)F)n(C)c2=O)c(F)cc1Cl (stereo not drawn)
Result string: 20%

Query string: For the compound COC(C)COC(=O)C(C)Sc1cc(-n2c(=O)cc(C(F)(F)F)n(C)c2=O)c(F)cc1Cl (stereo not drawn) , report Triticum aestivum (Efficacy in %).
Result string: 20%

====

- Tested on: Zea mays
- EXPERIMENTAL_PROTOCOL: Crop compatibility pre-emergence (greenhouse pot trial)
- Type: in vivo
- CONDITION_SUMMARY: application rate 80 g/ha, effect vs untreated controls
MEASURED_PROPERTY: Zea mays (Efficacy in %)
// note: answer is a bare numeric in %

Sample records with Zea mays (Efficacy in %):
>  <COMPOUND>
CCC(Sc1cc(-n2c(=O)cc(C(F)(F)F)n(C)c2=O)c(F)cc1Cl)C(=O)OCC1CCCO1 (stereo not shown) [I.2-71]

>  <NUMERIC_READOUT>
10

$$$$
>  <COMPOUND>
CCC(Sc1cc(-n2c(=O)cc(C(F)(F)F)n(C)c2=O)c(F)cc1Cl)C(=O)OCC1CCOC1 (stereo not shown) [I.2-72]

>  <NUMERIC_READOUT>
10

$$$$
>  <COMPOUND>
CC(Sc1cc(-n2c(=O)cc(C(F)(F)F)n(C)c2=O)c(F)cc1Cl)C(=O)OCC1CCCCO1 (stereo not shown) [I.1-91]

>  <NUMERIC_READOUT>
0

$$$$

// switching to the query compound
Query string: Quick one: give measured Zea mays (Efficacy in %) for CC(Sc1cc(-n2c(=O)cc(C(F)(F)F)n(C)c2=O)c(F)cc1Cl)C(=O)OCC1CCCOC1 (stereo not shown) [I.1-92]
Result string: 0

====

Quick reference for Amaranthus retroflexus (Efficacy in %) among some compounds
- Tested on: Amaranthus retroflexus
- EXPERIMENTAL_PROTOCOL: Herbicidal action post-emergence (greenhouse pot trial)
- Type: in vivo
- CONDITION_SUMMARY: application rate 20 g/ha, scored visually after about 3 weeks vs untreated controls
Output spec: scalar in %, unitless text.

Worked examples follow.
>  <COMPOUND>
CC(Sc1cc(-n2c(=O)cc(C(F)(F)F)n(C)c2=O)c(F)cc1Cl)C(=O)NCC1COCCO1 (centres unmarked)

>  <Amaranthus retroflexus (Efficacy in %)>
100

$$$$
>  <COMPOUND>
CC(Sc1cc(-n2c(=O)cc(C(F)(F)F)n(C)c2=O)c(F)cc1Cl)C(=O)OCCCSC(F)(F)F (centres unmarked)

>  <Amaranthus retroflexus (Efficacy in %)>
100

$$$$
>  <COMPOUND>
CCC(Sc1cc(-n2c(=O)cc(C(F)(F)F)n(C)c2=O)c(F)cc1Cl)C(=O)OCC1CCCS1 (centres unmarked)

>  <Amaranthus retroflexus (Efficacy in %)>
100

$$$$
>  <COMPOUND>
COCCNC(=O)C(C)Sc1cc(-n2c(=O)cc(C(F)(F)F)n(C)c2=O)c(F)cc1Cl (centres unmarked)

>  <Amaranthus retroflexus (Efficacy in %)>
100

$$$$
>  <COMPOUND>
Cn1c(C(F)(F)F)cc(=O)n(-c2cc(SCC(C)(C)C(=O)OCC3CCCS3)c(Cl)cc2F)c1=O (centres unmarked)

>  <Amaranthus retroflexus (Efficacy in %)>
100

$$$$
>  <COMPOUND>
Cn1c(C(F)(F)F)cc(=O)n(-c2cc(SCC(C)(C)C(=O)OC3CCOC3)c(Cl)cc2F)c1=O (centres unmarked)

>  <Amaranthus retroflexus (Efficacy in %)>
100

$$$$
>  <COMPOUND>
CC(Sc1cc(-n2c(=O)cc(C(F)(F)F)n(C)c2=O)c(F)cc1Cl)C(=O)OCC1CCCCO1 (centres unmarked)

>  <Amaranthus retroflexus (Efficacy in %)>
100

$$$$
>  <COMPOUND>
Cc1c(C(F)(F)F)n(C)c(=O)n(-c2cc(SCC(C)(C)C(=O)NCC3CCCCO3)c(Cl)cc2F)c1=O (centres unmarked)

>  <Amaranthus retroflexus (Efficacy in %)>
100

$$$$
>  <COMPOUND>
CCC(C)C(Sc1cc(-n2c(=O)cc(C(F)(F)F)n(C)c2=O)c(F)cc1Cl)C(=O)NCC1CCCO1 (centres unmarked)

>  <Amaranthus retroflexus (Efficacy in %)>
100

$$$$
>  <COMPOUND>
CC(Sc1cc(-n2c(=O)cc(C(F)(F)F)n(C)c2=O)c(F)cc1Cl)C(=O)NCCCOCc1ccccc1 (centres unmarked)

>  <Amaranthus retroflexus (Efficacy in %)>
100

$$$$

Query string: Please supply the value of reported Amaranthus retroflexus (Efficacy in %) for the item CCC(Sc1cc(-n2c(=O)cc(C(F)(F)F)n(C)c2=O)c(F)cc1Cl)C(=O)OCC1CCCO1 (centres unmarked)
Result string: 100

Query string: Please give the documented Amaranthus retroflexus (Efficacy in %) of Cn1c(C(F)(F)F)cc(=O)n(-c2cc(SCC(C)(C)C(=O)OCC3CCSC3)c(Cl)cc2F)c1=O (centres unmarked)
Result string: 100

Query string: Indicate its recorded Amaranthus retroflexus (Efficacy in %); the compound in question is CC(Sc1cc(-n2c(=O)cc(C(F)(F)F)n(C)c2=O)c(F)cc1Cl)C(=O)OC1CCOC1 (centres unmarked)
Result string: 100

Query string: Give me measured Amaranthus retroflexus (Efficacy in %), please, for this compound: CC(C)C(Sc1cc(-n2c(=O)cc(C(F)(F)F)n(C)c2=O)c(F)cc1Cl)C(=O)OCC1CCCO1 (centres unmarked)
Result string: 100

# credit: patent US11497212B2
